Biological target: Adenosine receptor A1 (Rattus norvegicus, UniProt P25099)
Sequence (P25099 whole entry): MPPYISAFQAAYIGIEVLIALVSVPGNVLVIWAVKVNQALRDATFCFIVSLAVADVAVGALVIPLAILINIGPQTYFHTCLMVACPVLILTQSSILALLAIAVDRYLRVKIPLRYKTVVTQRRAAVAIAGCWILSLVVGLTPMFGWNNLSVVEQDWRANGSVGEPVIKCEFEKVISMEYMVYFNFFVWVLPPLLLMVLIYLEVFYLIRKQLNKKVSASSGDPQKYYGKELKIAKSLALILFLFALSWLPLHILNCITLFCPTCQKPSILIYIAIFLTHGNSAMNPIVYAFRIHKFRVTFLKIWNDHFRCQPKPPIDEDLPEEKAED
recorded.endpoint: Ki (nM)
Lab book: enter the figure in nM, no units written.

smiles_str=CCCn1c(=O)c2nc([C@]34CC[C@](C(=O)O)(CC3)CC4)[nH]c2n(CCC)c1=O observed_measurement=7.8

# evaluate next
Incoming: Supply reported Ki belonging to this compound: CCCn1c(=O)c2nc([C@]34CC[C@](CC(=O)O)(CC3)CC4)[nH]c2n(CCC)c1=O
Outgoing: 22.5

====

These compounds were tested on Adenosine receptor A2a (Homo sapiens, UniProt P29274); pKi is the recorded read-out.
Sequence (P29274 whole entry): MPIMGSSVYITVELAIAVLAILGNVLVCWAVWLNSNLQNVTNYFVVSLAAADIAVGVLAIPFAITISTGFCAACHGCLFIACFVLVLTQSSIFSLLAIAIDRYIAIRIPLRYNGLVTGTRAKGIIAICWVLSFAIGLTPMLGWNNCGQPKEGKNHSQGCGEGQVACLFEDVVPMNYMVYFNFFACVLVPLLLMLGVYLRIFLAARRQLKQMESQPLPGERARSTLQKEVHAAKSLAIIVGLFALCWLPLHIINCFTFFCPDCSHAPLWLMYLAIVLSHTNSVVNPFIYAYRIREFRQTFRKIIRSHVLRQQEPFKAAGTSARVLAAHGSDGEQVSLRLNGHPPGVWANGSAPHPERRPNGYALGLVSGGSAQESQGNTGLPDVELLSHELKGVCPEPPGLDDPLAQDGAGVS
As a rule, pKi stands for the negative log10 of the concentration, concentration in M.

smiles_str=CCCn1c(=O)c2nc([C@]34CC[C@](C=O)(CC3)CC4)[nH]c2n(CCC)c1=O recorded_endpoint=pKi observed_measurement=6.10
smiles_str=CCCCNC(=O)[C@H]1CC[C@H](c2nc3c(=O)n(CCC)c(=O)n(CCC)c3[nH]2)CC1 recorded_endpoint=pKi observed_measurement=5.65
smiles_str=CCCn1c(=O)c2nc([C@]34CC[C@](C(=O)NCC(=O)O)(CC3)CC4)[nH]c2n(CCC)c1=O recorded_endpoint=pKi observed_measurement=5.10
smiles_str=CCCn1c(=O)c2nc([C@]34CC[C@](/C=C/C(=O)O)(CC3)CC4)[nH]c2n(CCC)c1=O recorded_endpoint=pKi observed_measurement=5.48
smiles_str=CCCn1c(=O)c2nc([C@]34CC[C@](C(=O)NCCN(C)C)(CC3)CC4)[nH]c2n(CCC)c1=O recorded_endpoint=pKi observed_measurement=6.88

Incoming: Supply reported pKi belonging to this compound: CCCn1c(=O)c2[nH]c([C@H]3CC[C@H](NC(=O)OCc4ccccc4)CC3)nc2n(CCC)c1=O
Outgoing: 5.53

Incoming: Supply reported pKi belonging to this compound: CCCn1c(=O)c2nc([C@]34CC[C@](CO)(CC3)CC4)[nH]c2n(CCC)c1=O
Outgoing: 6.38

Incoming: Supply reported pKi belonging to this compound: CCCn1c(=O)c2nc([C@]34CC[C@](C(=O)O)(CC3)CC4)[nH]c2n(CCC)c1=O
Outgoing: 5.97

====

Experiment: Clearance in Sprague-Dawley rat at 1 mg/kg, po
Format: ADME, organism-based
Parameters: dose 1 mg/kg, route oral
Conditions: in vivo
Measured CL/F of individual entries
Lab book: enter the figure in mL/min/kg, no units written.

smiles_str=CCCn1c(=O)c2nc([C@]34CC[C@](CCCC(=O)O)(CC3)CC4)[nH]c2n(CCC)c1=O observed_measurement=7.1

# evaluate next
Incoming: Supply reported CL/F belonging to this compound: CCCn1c(=O)c2[nH]c([C@]34CC[C@](CCC(=O)O)(CC3)CC4)nc2n(CCC)c1=O
Outgoing: 1.56

====

Target: Adenosine receptors; A1 & A2a (Homo sapiens) (UniProt P30542+P29274)
Experiment: Selectivity for human adenosine A1 receptor over human adenosine A2A receptor
Assay type: protein assay
Lab note - cut at 50 for Ratio Ki: TRUE if strictly below, FALSE if not.

smiles_str=CCCn1c(=O)c2nc([C@]34CC[C@](C(=O)NCC(=O)OC)(CC3)CC4)[nH]c2n(CCC)c1=O discrete_label=FALSE

Incoming: Lab log: compare recorded Ratio Ki with 50; is it strictly lower for CCCn1c(=O)c2nc([C@]34CC[C@](C=O)(CC3)CC4)[nH]c2n(CCC)c1=O ?
Outgoing: FALSE

Incoming: Lab log: compare recorded Ratio Ki with 50; is it strictly lower for CCCn1c(=O)c2nc([C@H]3CC[C@H](NC(=O)OCc4ccccc4)CC3)[nH]c2n(CCC)c1=O ?
Outgoing: TRUE

Incoming: Lab log: compare recorded Ratio Ki with 50; is it strictly lower for CCCn1c(=O)c2nc([C@H]3CC[C@H](C(=O)NCCN(C)C)CC3)[nH]c2n(CCC)c1=O ?
Outgoing: TRUE

Incoming: Lab log: compare recorded Ratio Ki with 50; is it strictly lower for CCCn1c(=O)c2nc([C@]34CC[C@](C(=O)NCCN(C)C)(CC3)CC4)[nH]c2n(CCC)c1=O ?
Outgoing: TRUE

Incoming: Lab log: compare recorded Ratio Ki with 50; is it strictly lower for CCCn1c(=O)c2nc([C@]34CC[C@](C(=O)OC)(CC3)CC4)[nH]c2n(CCC)c1=O ?
Outgoing: FALSE

Incoming: Lab log: compare recorded Ratio Ki with 50; is it strictly lower for CCCn1c(=O)c2nc([C@]34CC[C@](C(=O)O)(CC3)CC4)[nH]c2n(CCC)c1=O ?
Outgoing: TRUE

====

Assay: Oral bioavailability in Sprague-Dawley rat at 1 mg/kg, po
Type: ADME, organism-based
Conditions: in vivo
recorded.endpoint: bioavailability (%)
Lab book: enter the figure in %, no units written.

smiles_str=CCCn1c(=O)c2[nH]c([C@]34CC[C@](CCC(=O)O)(CC3)CC4)nc2n(CCC)c1=O recorded_endpoint=bioavailability uom=% observed_measurement=99

# evaluate next
Incoming: Supply reported bioavailability belonging to this compound: CCCn1c(=O)c2nc([C@]34CC[C@](CCCC(=O)O)(CC3)CC4)[nH]c2n(CCC)c1=O
Outgoing: 48

====

Biological target: Adenosine receptor A2b (Homo sapiens)
Sequence (whole entry): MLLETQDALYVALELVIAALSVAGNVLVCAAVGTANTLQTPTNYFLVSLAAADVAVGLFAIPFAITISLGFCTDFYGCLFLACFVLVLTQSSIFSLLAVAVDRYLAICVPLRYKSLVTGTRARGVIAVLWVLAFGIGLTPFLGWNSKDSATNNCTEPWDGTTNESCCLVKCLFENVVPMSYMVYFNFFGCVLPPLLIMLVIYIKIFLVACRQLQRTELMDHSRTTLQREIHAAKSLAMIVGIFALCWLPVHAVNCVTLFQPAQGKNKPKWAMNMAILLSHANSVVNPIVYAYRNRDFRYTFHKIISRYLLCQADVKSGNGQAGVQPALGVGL
Test: Displacement of [125I]3-(4-aminobenzyl)-8-phenyloxyacetate-1-propyl-xanthine from human adenosine A2B receptor expressed in HEK cells relative to control
Assay type: cell-based
Design: concentration or dose not given beside the values
Details: HEK293
# label = 1 if Activity >= 40% else 0

smiles_str=CCCn1c(=O)c2nc([C@]34CC[C@](C(=O)O)(CC3)CC4)[nH]c2n(CCC)c1=O experimental_target="Adenosine receptor A2b (Homo sapiens)" discrete_label=1
smiles_str=CCCn1c(=O)c2nc([C@H]3CC[C@H](COCc4ccccc4)CC3)[nH]c2n(CCC)c1=O experimental_target="Adenosine receptor A2b (Homo sapiens)" discrete_label=0
smiles_str=CCCn1c(=O)c2nc([C@H]3CC[C@H](NC(C)=O)CC3)[nH]c2n(CCC)c1=O experimental_target="Adenosine receptor A2b (Homo sapiens)" discrete_label=0
smiles_str=CCCn1c(=O)c2nc([C@H]3CC[C@H](C(=O)O)CC3)[nH]c2n(CCC)c1=O experimental_target="Adenosine receptor A2b (Homo sapiens)" discrete_label=1

Then there is this molecule:
Incoming: Check if Activity >= 40% (inclusive). Item: CCCn1c(=O)c2nc([C@]34CC[C@](C(=O)NCCN(C)C)(CC3)CC4)[nH]c2n(CCC)c1=O
Outgoing: 0

====

Assay: Clearance in Beagle dog at 1 mg/kg, po
Type: ADME, organism-based, Canis lupus familiaris
Parameters: dose 1 mg/kg, route oral
Details: in vivo
recorded.endpoint: CL/F (mL/min/kg)
Lab book: enter the figure in mL/min/kg, no units written.

Incoming: Supply reported CL/F belonging to this molecule: CCCn1c(=O)c2[nH]c([C@]34CC[C@](CCC(=O)O)(CC3)CC4)nc2n(CCC)c1=O
Outgoing: 11.8

====

Biological target: UniProtKB P29275
Sequence (whole entry): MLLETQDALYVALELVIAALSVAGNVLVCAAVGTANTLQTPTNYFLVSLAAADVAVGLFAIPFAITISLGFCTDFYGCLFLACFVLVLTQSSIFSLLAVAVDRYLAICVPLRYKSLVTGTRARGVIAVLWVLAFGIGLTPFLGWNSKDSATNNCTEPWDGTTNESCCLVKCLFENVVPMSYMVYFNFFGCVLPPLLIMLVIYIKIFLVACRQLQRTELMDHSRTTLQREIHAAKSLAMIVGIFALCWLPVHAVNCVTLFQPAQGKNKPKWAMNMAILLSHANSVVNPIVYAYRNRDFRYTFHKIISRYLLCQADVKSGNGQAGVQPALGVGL
Assay: Displacement of [125I]3-(4-aminobenzyl)-8-phenyloxyacetate-1-propyl-xanthine from human adenosine A2B receptor expressed in HEK cells relative to control
Assay type: cell-based
Set-up: concentration or dose not given beside the values
Details: HEK293
Measured Activity of individual entries
Lab book: enter the figure in %, no units written.

Solved cases (3 shown):
smiles_str=CCCn1c(=O)c2nc([C@H]3CC[C@H](C(=O)NCCN(C)C)CC3)[nH]c2n(CCC)c1=O experimental_target="UniProtKB P29275" uom=% observed_measurement=16
smiles_str=CCCn1c(=O)c2nc([C@H]3CC[C@H](C(=O)N4CCOCC4)CC3)[nH]c2n(CCC)c1=O experimental_target="UniProtKB P29275" uom=% observed_measurement=48
smiles_str=CCCn1c(=O)c2nc([C@H]3CC[C@H](NC(=O)OCc4ccccc4)CC3)[nH]c2n(CCC)c1=O experimental_target="UniProtKB P29275" uom=% observed_measurement=24

# evaluate next
Incoming: Supply reported Activity belonging to this compound: CCCn1c(=O)c2nc([C@]34CC[C@](CO)(CC3)CC4)[nH]c2n(CCC)c1=O
Outgoing: 27
